system: 616215-338-R-J1-PDC complex spheroid growth, % test/control; assay: Anticancer human tumor 616215-338-R-J1-PDC patient-derived colon adenocarcinoma cell line growth inhibition [Asc]; settings: second compound 0.316 µM; first compound 10 µM; active = viability on the fitted dose curve at most 10% of control; inactive = the rest;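 also: spheroids exposed to agents for seven days before readout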
Parameter call: string, one of y (active), n (inactive)

Any idea what this test logged for C#Cc1c(F)ccc2cc(O)cc(-c3ncc4c(N5CC6CCC(C5)N6)nc(OCC56CCCN5CC(F)C6)nc4c3F)c12 (stereo not drawn) + Cc1c(S(C)(=O)=O)c(-c2cc(F)cc(N3CCN(c4ccc(NS(=O)(=O)c5ccc(NC(CCN6CCC(C(=O)OCCCP(=O)(O)O)CC6)CSc6ccccc6)c(S(=O)(=O)C(F)(F)F)c5)cc4)CC3)c2)c(-c2ccc(Cl)cc2)n1C(C)C ?
n

Could you check what this test reported for C=CC(=O)N1CCN(c2nc(=O)n(-c3c(C)ccnc3C(C)C)c3nc(-c4c(O)cccc4F)c(F)cc23)C(C)C1 (stereo not drawn) + Cc1c(S(C)(=O)=O)c(-c2cc(F)cc(N3CCN(c4ccc(NS(=O)(=O)c5ccc(NC(CCN6CCC(C(=O)OCCCP(=O)(O)O)CC6)CSc6ccccc6)c(S(=O)(=O)C(F)(F)F)c5)cc4)CC3)c2)c(-c2ccc(Cl)cc2)n1C(C)C ?
n

For C=C(F)C(=O)N1CCN(c2nc(OCC3CCCN3C)nc3c2CCN(c2cccc4cccc(Cl)c24)C3)CC1CC#N (stereo not drawn) + CNC(C)C(=O)NC1CN(S(=O)(=O)c2cccc(S(=O)(=O)N3CCC4CCC(C(=O)NC(c5ccccc5)c5ccccc5)N4C(=O)C(NC(=O)C(C)NC)C3)c2)CCC2CCC(C(=O)NC(c3ccccc3)c3ccccc3)N2C1=O , what call appears in the results of this test?
y

Short answer needed: outcome of this test for C#Cc1c(F)ccc2cc(O)cc(-c3ncc4c(N5CC6CCC(C5)N6)nc(OCC56CCCN5CC(F)C6)nc4c3F)c12 (stereo not drawn) + CNC(C)C(=O)NC1CN(S(=O)(=O)c2cccc(S(=O)(=O)N3CCC4CCC(C(=O)NC(c5ccccc5)c5ccccc5)N4C(=O)C(NC(=O)C(C)NC)C3)c2)CCC2CCC(C(=O)NC(c3ccccc3)c3ccccc3)N2C1=O ?
y

Which outcome was assigned to O=C(c1cc(Cc2n[nH]c(=O)c3ccccc23)ccc1F)N1CCN(C(=O)C2CC2)CC1 + CNC(C)C(=O)NC1CN(S(=O)(=O)c2cccc(S(=O)(=O)N3CCC4CCC(C(=O)NC(c5ccccc5)c5ccccc5)N4C(=O)C(NC(=O)C(C)NC)C3)c2)CCC2CCC(C(=O)NC(c3ccccc3)c3ccccc3)N2C1=O in this test?
n

Outcome? O=C(c1cc(Cc2n[nH]c(=O)c3ccccc23)ccc1F)N1CCN(C(=O)C2CC2)CC1 + Cc1c(S(C)(=O)=O)c(-c2cc(F)cc(N3CCN(c4ccc(NS(=O)(=O)c5ccc(NC(CCN6CCC(C(=O)OCCCP(=O)(O)O)CC6)CSc6ccccc6)c(S(=O)(=O)C(F)(F)F)c5)cc4)CC3)c2)c(-c2ccc(Cl)cc2)n1C(C)C
n

Lab log entry: C=C(F)C(=O)N1CCN(c2nc(OCC3CCCN3C)nc3c2CCN(c2cccc4cccc(Cl)c24)C3)CC1CC#N (stereo not drawn) + Cc1c(S(C)(=O)=O)c(-c2cc(F)cc(N3CCN(c4ccc(NS(=O)(=O)c5ccc(NC(CCN6CCC(C(=O)OCCCP(=O)(O)O)CC6)CSc6ccccc6)c(S(=O)(=O)C(F)(F)F)c5)cc4)CC3)c2)c(-c2ccc(Cl)cc2)n1C(C)C — outcome as called in the assay?
y

// param item: C=CC(=O)N1CCN(c2nc(=O)n(-c3c(C)ccnc3C(C)C)c3nc(-c4c(O)cccc4F)c(F)cc23)C(C)C1 (stereo not drawn) + CNC(C)C(=O)NC1CN(S(=O)(=O)c2cccc(S(=O)(=O)N3CCC4CCC(C(=O)NC(c5ccccc5)c5ccccc5)N4C(=O)C(NC(=O)C(C)NC)C3)c2)CCC2CCC(C(=O)NC(c3ccccc3)c3ccccc3)N2C1=O ; yields the recorded call
n

Sourced from PubChem BioAssay AID1963448
